- Assay system: T1, SRSF1 RS (human, UniProt Q07955 199-248)
- T1 chain: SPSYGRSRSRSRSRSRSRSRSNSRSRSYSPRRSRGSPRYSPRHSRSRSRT
- Assay details: FP; 8-mer buffer, 35 mM K3PO4; FP, 10 nM RNA, 37 C 30 min then 25 C 10 min; 21-mers: 25 mM KCl, 0.25 M Arg/Glu, 20 mM Tris-HCl pH 7.5, 0.1 mM EDTA, 0.1 mM TCEP, 0.02% Tween 20; 8-mers: 35 mM
- Study conditions: protein: recombinant; tags: none (SUMO cleaved); label: 5' fluorescein
pKd: −log10 of the molar value.

Binder	pKd
UUUUUUUU (ssRNA) [8U]	6.26
CUCUCUCU (ssRNA) [4CU]	6.33
GAGAGAGA (ssRNA) [4GA]	7.08
AAAAAAAA (ssRNA) [8A]	6.21
